Cited source for all entries: patent US20080004253A1

molecular target: UniProtKB Q8NER1; experiment: Functional assay: block of capsaicin-induced Ca2+ influx, human assay (hTRPV1/HEK293, FLIPR); settings: hTRPV1/HEK293 cells, 150 nM capsaicin challenge, Fluo-3 fluorescence; mean; > value = solubility limit in assay medium
Field: pIC50. Provide a value for each of the compounds that follow.
# pIC50 is unitless: minus log10 of the molar concentration; print number only

The reported value for CS(=O)(=O)c1ccc(Nc2nc(N3CCOCC3)nc3sc(Nc4c(Cl)cccc4Cl)nc23)cc1 [Example 178] in terms of pIC50 is 6.54

// pIC50 lookup, compound = FC(F)(F)c1ccc(Nc2ncnc3sc(Nc4c(Cl)cccc4C(F)(F)F)nc23)cn1 [Example 19] , result: 7.13

Notebook: FC(F)(F)c1ccc(Nc2nc(NCC3CC3)nc3sc(Nc4c(Cl)cccc4Cl)nc23)cc1 [Example 62] , pIC50 read as 7.70

Entry FC(F)(F)c1ccc(Nc2ncnc3sc(Nc4c(Cl)cccc4Cl)nc23)cn1 [Example 2] ; pIC50 = 7.85

Short answer for COC(=O)c1ccc(Nc2ncnc3sc(Nc4c(C)cccc4C)nc23)cc1 [Example 37] : pIC50 was 6.87

###

target: human TRPV1 (Homo sapiens); experiment: Functional assay: block of capsaicin-induced Ca2+ influx, human assay (hTRPV1/HEK293, FLIPR); settings: hTRPV1/HEK293 cells, 150 nM capsaicin challenge, Fluo-3 fluorescence; mean; > value = solubility limit in assay medium
Provide the reported pIC50 of each item.
Please express pIC50 as -log10 of the molar concentration.

pIC50 measured on CSc1ccc(Nc2ncnc3sc(Nc4c(C)cccc4C)nc23)cc1 = 7.19

Cc1cccc(C)c1Nc1nc2c(Nc3ccc(C(F)(F)F)c(Cl)c3)ncnc2s1 has a reported pIC50 of 6.95

Memo: Cc1cccc(C)c1Nc1nc2c(Nc3ccc(N(C)S(C)(=O)=O)cc3)ncnc2s1 , reported pIC50: 5.42

# molecule FC(F)(F)c1ccc(Nc2ncnc3sc(Nc4ccccc4)nc23)cn1 ; its pIC50 = 6.25

###

molecular target: UniProt:O35433; assay: Functional assay: block of capsaicin-induced Ca2+ influx, rat assay (rTRPV1/HEK293, FLIPR); settings: rTRPV1/HEK293 cells, capsaicin challenge, Fluo-3 fluorescence; mean; > value = solubility limit in assay medium
VALUE KIND: IC50

The observed IC50 for Cc1noc(C)c1Nc1nc2c(Nc3ccc(C(F)(F)F)c(Cl)c3)ncnc2s1 [Example 50] when tested with UniProt:O35433 stands at > 6.67 µM

Record for Cc1cccc(C)c1Nc1nc2c(Nc3ccc(Cl)c(Cl)c3)ncnc2s1 [Example 34] under target or system UniProt:O35433: IC50 reported as > 6.67 µM

I looked up CNCCNc1nc(Nc2ccc(C(F)(F)F)cc2)c2nc(Nc3c(Cl)cccc3Cl)sc2n1 [Example 181] and its IC50 for UniProt:O35433 was > 20 µM

###

Kindly state pIC50 for each of the entries shown.
target: rat TRPV1 (Rattus norvegicus); assay: Functional assay: block of capsaicin-induced Ca2+ influx, rat assay (rTRPV1/HEK293, FLIPR); conditions: rTRPV1/HEK293 cells, capsaicin challenge, Fluo-3 fluorescence; mean; > value = solubility limit in assay medium
pIC50 here is simply -log10 of the concentration when that concentration is written in mol/L.

The reported rat TRPV1 (Rattus norvegicus) pIC50 of OCC1CN(c2nc(Nc3ccc(C(F)(F)F)cc3)c3nc(Nc4c(Cl)cccc4Cl)sc3n2)CCO1 (racemic) is 6.50

Record Cc1nc(Nc2ccc(C(F)(F)F)cc2)c2nc(N(C)c3c(Cl)cccc3Cl)sc2n1 / rat TRPV1 (Rattus norvegicus), pIC50 recorded as 6.50

Simply: COC(=O)c1ccc(Nc2ncnc3sc(Nc4c(C)cccc4C)nc23)cc1 , rat TRPV1 (Rattus norvegicus), pIC50 = 7.42

###

target: rat TRPV1 (Rattus norvegicus, UniProt O35433); assay: Functional assay: block of capsaicin-induced Ca2+ influx, rat assay (rTRPV1/HEK293, FLIPR); settings: rTRPV1/HEK293 cells, capsaicin challenge, Fluo-3 fluorescence; mean; > value = solubility limit in assay medium
Sequence (O35433 whole entry): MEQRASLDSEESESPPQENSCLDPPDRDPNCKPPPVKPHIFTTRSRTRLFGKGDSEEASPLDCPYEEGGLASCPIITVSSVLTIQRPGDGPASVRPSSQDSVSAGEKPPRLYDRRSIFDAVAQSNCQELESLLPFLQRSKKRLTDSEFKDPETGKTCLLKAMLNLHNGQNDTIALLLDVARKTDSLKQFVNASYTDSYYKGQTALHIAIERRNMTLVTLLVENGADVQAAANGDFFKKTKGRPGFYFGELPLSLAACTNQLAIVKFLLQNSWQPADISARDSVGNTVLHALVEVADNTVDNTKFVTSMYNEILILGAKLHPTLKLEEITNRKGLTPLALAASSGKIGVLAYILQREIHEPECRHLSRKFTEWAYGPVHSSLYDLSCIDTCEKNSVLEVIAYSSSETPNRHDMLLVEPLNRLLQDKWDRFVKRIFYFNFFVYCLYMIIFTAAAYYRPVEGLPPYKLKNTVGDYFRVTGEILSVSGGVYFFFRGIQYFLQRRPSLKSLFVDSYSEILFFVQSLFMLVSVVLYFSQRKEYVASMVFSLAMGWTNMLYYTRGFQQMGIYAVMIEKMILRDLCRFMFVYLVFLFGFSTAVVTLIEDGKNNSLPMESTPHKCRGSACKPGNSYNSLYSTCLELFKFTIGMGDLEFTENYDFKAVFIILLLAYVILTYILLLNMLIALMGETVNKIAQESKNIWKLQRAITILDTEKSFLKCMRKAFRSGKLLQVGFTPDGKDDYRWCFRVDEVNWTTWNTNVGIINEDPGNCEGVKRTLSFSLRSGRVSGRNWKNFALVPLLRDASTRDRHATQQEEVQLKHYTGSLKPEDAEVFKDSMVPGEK
VALUE KIND: pIC50
Units for pIC50: none; it is -log10 of a concentration expressed in mol/L.

Recorded result, FC(F)(F)c1ccc(Nc2ncnc3sc(Nc4c(Cl)cccc4Cl)nc23)cn1 , pIC50: 8.40

Documented pIC50 of CC(C)C1CCCN1c1nc(Nc2ccc(C(F)(F)F)c(Cl)c2)c2nc(Nc3c(Cl)cccc3Cl)sc2n1 (racemic) : 7.74

// sample Cc1nc(Nc2ccc(S(=O)(=O)C(F)(F)F)cc2)c2nc(Nc3c(C)cccc3C)sc2n1 , its pIC50 was 7.82

Please fill in: pIC50 reported for Cc1cccc(C)c1Nc1nc2c(Nc3ccc(C#N)c(C(F)(F)F)c3)ncnc2s1 = 6.59

###

Exercise: for every item that follows, state its recorded log10(IC50).
biological target: human TRPV1 (Homo sapiens, UniProt Q8NER1); assay: Functional assay: block of capsaicin-induced Ca2+ influx, human assay (hTRPV1/HEK293, FLIPR); conditions: hTRPV1/HEK293 cells, 150 nM capsaicin challenge, Fluo-3 fluorescence; mean; > value = solubility limit in assay medium
Sequence (Q8NER1 whole entry): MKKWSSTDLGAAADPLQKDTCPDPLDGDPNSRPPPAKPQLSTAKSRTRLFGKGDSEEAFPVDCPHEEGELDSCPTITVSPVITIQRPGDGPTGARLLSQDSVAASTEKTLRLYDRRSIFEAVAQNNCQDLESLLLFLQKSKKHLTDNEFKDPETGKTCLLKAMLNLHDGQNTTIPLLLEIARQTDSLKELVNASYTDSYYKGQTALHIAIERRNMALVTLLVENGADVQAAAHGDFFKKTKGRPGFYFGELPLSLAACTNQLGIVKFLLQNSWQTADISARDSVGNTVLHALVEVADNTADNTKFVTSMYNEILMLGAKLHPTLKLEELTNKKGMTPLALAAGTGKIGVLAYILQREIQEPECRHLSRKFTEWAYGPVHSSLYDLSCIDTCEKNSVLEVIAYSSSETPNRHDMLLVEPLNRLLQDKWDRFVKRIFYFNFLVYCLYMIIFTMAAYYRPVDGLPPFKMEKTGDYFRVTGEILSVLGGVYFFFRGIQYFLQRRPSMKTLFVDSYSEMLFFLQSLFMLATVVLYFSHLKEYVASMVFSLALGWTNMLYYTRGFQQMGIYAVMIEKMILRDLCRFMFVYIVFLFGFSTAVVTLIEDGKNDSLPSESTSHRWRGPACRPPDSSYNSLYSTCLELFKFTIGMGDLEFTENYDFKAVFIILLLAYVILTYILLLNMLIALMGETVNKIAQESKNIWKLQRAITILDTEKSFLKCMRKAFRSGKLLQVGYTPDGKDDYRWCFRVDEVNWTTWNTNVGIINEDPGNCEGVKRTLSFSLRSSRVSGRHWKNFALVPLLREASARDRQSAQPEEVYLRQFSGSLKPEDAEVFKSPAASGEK
Each number you see is log10 of IC50, and the unit inside the log is nM.

The recorded log10(IC50) for entry CNCCNc1nc(Nc2ccc(C(F)(F)F)cc2)c2nc(Nc3c(Cl)cccc3Cl)sc2n1 equals 3.81

GET /value?item= COC(=O)c1scc(C)c1Nc1nc2c(Nc3ccc(C(F)(F)F)c(Cl)c3)ncnc2s1 &field=log10(IC50) returns 2.88

Measured log10(IC50) of Cc1cccc(C)c1Nc1nc2c(Nc3ccc(C(C)(C)C)cc3)ncnc2s1 : 1.48

Value of measured log10(IC50) for the entry Cc1cccc(C)c1Nc1nc2c(Nc3ccc(C(C)O)cc3)ncnc2s1 (racemic) : 2.51

compound Cc1cccc(C)c1Nc1nc2c(Nc3ccc(SC(C)C)cc3)ncnc2s1 , log10(IC50) observed: 1.56

Just so you know, measured log10(IC50) for Cc1ccc(Nc2ncnc3sc(Nc4c(C)cccc4C)nc23)c(O)c1 came out at 3.29

Record CS(=O)(=O)c1ccccc1Nc1nc2c(Nc3ccc(C(F)(F)F)cc3)ncnc2s1 . Reported log10(IC50): 2.41

response.value for FC(F)(F)c1ccc(Nc2ncnc3sc(Nc4ccccc4Cl)nc23)cn1 (field: log10(IC50)) = 1.63

###

molecular target: UniProt Q8NER1; experiment: Functional assay: block of capsaicin-induced Ca2+ influx, human assay (hTRPV1/HEK293, FLIPR); details: hTRPV1/HEK293 cells, 150 nM capsaicin challenge, Fluo-3 fluorescence; mean; > value = solubility limit in assay medium
VALUE KIND: pIC50
Scale: pIC50 equals -log10([C]), with [C] in mol/L.

Memo: CC1CCCN1c1nc(Nc2ccc(S(C)(=O)=O)cc2)c2nc(Nc3c(Cl)cccc3Cl)sc2n1 (racemic) , reported pIC50: 7.30

The recorded pIC50 for Cc1nc(Nc2ccc(S(=O)(=O)C(C)C)cc2)c2nc(Nc3c(Cl)cccc3Cl)sc2n1 is 8.10

Record summary for CC(C)C1CCCN1c1nc(Nc2ccc(S(C)(=O)=O)cc2)c2nc(Nc3c(Cl)cccc3Cl)sc2n1 (racemic) : reported pIC50 = 7.68

Recorded pIC50 (compound CC(C)N1CCN(c2nc(Nc3ccc(C(F)(F)F)cc3)c3nc(Nc4c(Cl)cccc4Cl)sc3n2)CC1 ): 6.73

Per the records, this compound ( CC(C)(C)c1ccc(Nc2ncnc3sc(Nc4c(Cl)cccc4Cl)nc23)cc1 ) has pIC50 equal to 7.85

###

Biological target: human TRPV1 (Homo sapiens, UniProt Q8NER1)
Experiment: Functional assay: block of capsaicin-induced Ca2+ influx, human assay (hTRPV1/HEK293, FLIPR)
Conditions: hTRPV1/HEK293 cells, 150 nM capsaicin challenge, Fluo-3 fluorescence; mean; > value = solubility limit in assay medium
Experimental: Functional assay: block of capsaicin-induced Ca^2+ influx HEK293 cells were transfected with human TRPV1 cloned in pcDNA3.1zeo(+) using the Effectene non-liposomal lipid based transfection kit (Qiagen) (hTRPV1/HEK293). hTRPV1/HEK293 cells were routinely grown as monolayers under selection in zeocin (200 μg/mL; Invitrogen) in Dulbecco's Modified Eagle Medium (DMEM, Gibco BRL) supplemented with 10% fetal bovine serum, and penicillin/streptomycin (50 units/mL) in 5% CO2 at 37° C. […]
pIC50: −log10 of the molar value.
VALUE KIND: pIC50

The measured pIC50 associated with Cc1nc(N(C)c2ccc(C(F)(F)F)cc2)c2nc(Nc3c(Cl)cccc3Cl)sc2n1 reads < 4.70

pIC50 measured on FC(F)(F)c1ccc(Nc2nc3c(Nc4ccc(C(F)(F)F)cc4)ncnc3s2)cc1 = < 5.18

Form field pIC50, entry Cc1nc(Nc2ccc(C(F)(F)F)cc2)c2nc(Nc3ncccc3C)sc2n1 : ≤ 5.18
